Consider the following sequences; for each one, report its protein stability index.
Experiment: protein stability index of a GFP-peptide fusion (GPS, HEK-293T) (PSI 1-6); higher = more stable;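 also: 24-mer peptide tiles fused after GFP, lentivirally expressed, FACS-sorted into six equal bins by GFP/DsRed ratio, decoded by Illumina sequencing, PSI is the read-weighted mean bin number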
Details: treatment: DMSO; c terminus: a fixed tail appended

input: // query protein stability index value for entry RPSSPRPQKASPNGSISSAGNSSR [BTBD10]
output: 4.97

input: And for GQQDQVKLHDFFSYLMDHFIPSSH [PPEF2] ?
output: 2.81

input: Proceed to MAVLKLTDQPPLVQAIFSGDPEEI [ANKRD44]
output: 3.37

input: // repeat for HDGKNQPSKTYPAFLEPDETFIVP [SPSB1] and report
output: 4.28

input: Item: VYSDLCEAAEAVRPEERKTCRNPA [ADAMTSL2]
output: 4.83

input: Same for HHWDHARGNPELARLRPGLAVLGA [HAGHL]
output: 3.1

input: Let us now turn to SRKIAVEDENDLEELNNGEPQTEH [MIA2]
output: 5.61

input: Would you mind doing PRCDLVDLGEGKICFCCEEFQPAK [FAM189A2] as well?
output: 3.3
